- experimental_target: human PAD4 (Homo sapiens)
- Construct: human PAD4 (NM_012387), A2-P663, was PCR amplified; His-SUMO (N, cleaved yes)
- assay_info: In vitro PAD4 BAEE biochemical assay
- condition_description: BAEE substrate 3 mM, 5 nM PAD4, 2 mM calcium chloride; geometric mean of multiple experiments
pIC50: −log10 of the molar value.
recorded_endpoint: pIC50

Consider the reported pIC50 for these compounds:
[[record]]
compound = "C[C@H]1NC(=O)C(C)(C)CCCCCCn2c(-c3nc4cc(C(=O)N[C@H]5CNCC[C@@H]5F)cc(Cl)c4n3C)cc3ccc1nc32"
recorded_endpoint = "pIC50"
observed = 6.57

[[record]]
compound = "C[C@H]1NC(=O)[C@@H]2C[C@H]2CCCC(F)(F)Cn2c(-c3nc4cc(C(=O)N5C[C@H](N)[C@@H]6CC[C@H]5C6)cc(F)c4n3[C@@H]3C[C@@H]3C(F)F)cc3ccc1nc32"
recorded_endpoint = "pIC50"
observed = 7.51

[[record]]
compound = "COc1cc(C(=O)N2[C@H]3CC[C@@H]2[C@H](N)C3)cc2nc(-c3cc4ccc5nc4n3CCCCCC[C@@](C)(C(F)(F)F)C(=O)N[C@@H]5C)n(C)c12"
recorded_endpoint = "pIC50"
observed = 6.92


(I) COc1cc(C(=O)N[C@H]2CNCC[C@@H]2F)cc2nc(-c3cc4ccc5nc4n3CCCCC[C@]3(C)C[C@H]3C(=O)N[C@@H]5C)n(C)c12
(II) C[C@H]1NC(=O)[C@H]2C[C@@H]2CC[C@@H]2C[C@@H]2Cn2c(-c3nc4cc(C(=O)N[C@H]5CNCC[C@@H]5F)c(F)cc4n3C)cc3ccc1nc32
(III) C[C@H]1NC(=O)c2cnccc2CCCCCn2c(-c3nc4cc(C(=O)N[C@H]5CNCC[C@@H]5F)c(F)cc4n3C)cc3ccc1nc32
(IV) COc1cc(C(=O)N2C[C@H](N)[C@@H]3CC[C@H]2C3)cc2nc(-c3cc4ccc5nc4n3CCCCCc3c(ccc(Cl)c3F)C(=O)N[C@@H]5C)n(C)c12
(V) COc1cc(C(=O)N2C[C@H](N)[C@H](O)[C@@H](F)C2)cc2nc(-c3cc4ccc5nc4n3CC(F)(F)CCC[C@@H]3C[C@H]3C(=O)N[C@@H]5C)n(C)c12
Ask: Order the items by recorded pIC50; the first position goes to the largest value. Use the labels to give the requested order.
Reply: V, III, I, IV, II
(V: 7.82, III: 7.47, I: 7.16, IV: 6.81, II: 5.69)

----------
- experimental_target: human PAD4 (Homo sapiens, UniProt Q9UM07)
- Construct: human PAD4 (NM_012387), A2-P663, was PCR amplified; His-SUMO (N, cleaved yes)
- Sequence (Q9UM07 2-663): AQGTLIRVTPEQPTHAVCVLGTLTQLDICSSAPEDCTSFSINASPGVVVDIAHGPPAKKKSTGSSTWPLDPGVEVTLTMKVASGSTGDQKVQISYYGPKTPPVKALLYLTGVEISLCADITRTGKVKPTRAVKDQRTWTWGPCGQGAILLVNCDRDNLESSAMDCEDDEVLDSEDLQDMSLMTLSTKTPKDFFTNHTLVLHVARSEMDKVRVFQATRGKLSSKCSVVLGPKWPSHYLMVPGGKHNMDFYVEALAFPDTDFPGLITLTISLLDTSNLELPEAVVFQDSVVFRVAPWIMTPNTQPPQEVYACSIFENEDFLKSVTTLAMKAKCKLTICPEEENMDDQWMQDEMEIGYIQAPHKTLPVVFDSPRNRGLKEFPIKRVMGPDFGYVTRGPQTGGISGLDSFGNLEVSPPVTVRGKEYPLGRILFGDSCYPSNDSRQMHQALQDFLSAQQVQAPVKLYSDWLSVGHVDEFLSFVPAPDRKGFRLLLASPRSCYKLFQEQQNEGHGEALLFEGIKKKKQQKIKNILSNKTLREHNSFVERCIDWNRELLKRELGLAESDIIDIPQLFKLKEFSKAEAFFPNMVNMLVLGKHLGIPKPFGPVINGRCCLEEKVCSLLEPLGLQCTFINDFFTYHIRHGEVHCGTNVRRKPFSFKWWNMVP
- assay_info: In vitro PAD4 BAEE biochemical assay
- condition_description: BAEE substrate 3 mM, 5 nM PAD4, 2 mM calcium chloride; geometric mean of multiple experiments
recorded_endpoint: IC50 (nM)

[[record]]
molecule = "COc1cc(C(=O)N2CC[C@@H](OC(F)F)[C@@H](N)C2)cc2nc(-c3cc4ccc5nc4n3CCCCCc3nc4ccccc4nc3C(=O)N[C@@H]5C)n(C)c12 [Example 824]"
recorded_endpoint = "IC50"
observed = 43


(1) COc1cc(C(=O)N[C@H]2CNCC[C@@H]2F)cc2nc(-c3cc4ccc5nc4n3CCCCCc3cnccc3C(=O)N[C@@H]5C)n(C)c12 [Example 344]
(2) [2H]C1([2H])[C@H](N)[C@@H]2CC[C@@H](C2)N1C(=O)c1cc(F)c2c(c1)nc(-c1cc3ccc4nc3n1CCCCCc1nc(Cl)ccc1C(=O)N[C@@H]4C)n2C1CC1 [Example 764]
Ask: Task for the reader: decide whether 1 or 2 has the larger IC50. Answer with the label corresponding to your selection.
Reply: 1
(1: 51 nM, 2: 22 nM)
